Tested on: HIVIIIB
ASSAY NAME: Antiviral Activity: anti-HIV activity in MT4 cells infected with HIVIIIB (MTT)
Format: cell-based
EXPERIMENTAL PARAMETERS: Human immunodeficiency virus 1, 120 h, MOI 0.003, 5 days, n=four duplicate determinations
pEC50: −log10 of the molar value.
REPORTED PROPERTY: pEC50

• Cc1cccc(C)c1OCC(=O)N[C@@H](Cc1ccccc1)[C@@H](O)C[C@H](Cc1ccccc1)NC(=O)O[C@@H]1CCSC1(C)C = 5.93
• CC(C)[C@@H](NC(=O)OCc1cncs1)C(=O)N[C@@H](Cc1ccccc1)C[C@H](O)[C@H](Cc1ccccc1)NC(=O)O[C@H]1CO[C@H]2OCC[C@H]21 = 6.57
• Cc1cc(C)c(OCC(=O)N[C@@H](Cc2ccccc2)C[C@H](O)[C@H](Cc2ccccc2)NC(=O)O[C@H]2CO[C@H]3OCC[C@H]32)c(C)c1N = 7.49
• Cc1cc(F)cc(C)c1OCC(=O)N[C@@H](Cc1ccccc1)C[C@H](O)[C@H](Cc1ccccc1)NC(=O)O[C@H]1CO[C@H]2OCC[C@H]21 = 6.57
• Cc1cc(N)cc(C)c1OCC(=O)N[C@@H](Cc1ccccc1)C[C@H](O)[C@H](Cc1ccccc1)NC(=O)O[C@@H]1CO[C@@H]2OCC[C@@H]21 = 6.77
• O=C(N[C@@H](Cc1ccccc1)C[C@H](O)[C@H](Cc1ccccc1)NC(=O)OC1COC2OCCC12)OCc1cncs1 (stereo partly drawn) = 6.30

###

System: HIVIIIB
ASSAY NAME: Antiviral Activity: anti-HIV activity in MT4 cells infected with HIVIIIB (MTT)
Type: cell-based
EXPERIMENTAL PARAMETERS: Human immunodeficiency virus 1, 120 h, MOI 0.003, 5 days, n=four duplicate determinations
REPORTED PROPERTY: EC50 (nM)

- O=C(N[C@@H](Cc1ccccc1)C[C@H](O)[C@H](Cc1ccccc1)NC(=O)O[C@H]1CO[C@H]2OCC[C@H]21)O[C@H]1CO[C@H]2OCC[C@H]21: 34
- O=C(N[C@@H](Cc1ccccc1)C[C@H](O)[C@H](Cc1ccccc1)NC(=O)O[C@@H]1CO[C@@H]2OCC[C@@H]21)O[C@H]1CO[C@H]2OCC[C@H]21: 891
- COc1cccc(C)c1OCC(=O)N[C@@H](Cc1ccccc1)C[C@H](O)[C@H](Cc1ccccc1)NC(=O)O[C@H]1CO[C@H]2OCC[C@H]21: 353
- O=C(N[C@@H](Cc1ccccc1)[C@@H](O)C[C@H](Cc1ccccc1)NC(=O)c1ccc(O)cc1Cl)O[C@H]1CO[C@H]2OCC[C@H]21: 120
- Cc1cc(N)cc(C)c1SCC(=O)N[C@@H](Cc1ccccc1)C[C@H](O)[C@H](Cc1ccccc1)NC(=O)O[C@H]1CO[C@H]2OCC[C@H]21: 5790
- Cc1cc2ncoc2c(C)c1OCC(=O)N[C@@H](Cc1ccccc1)C[C@H](O)[C@H](Cc1ccccc1)NC(=O)O[C@H]1CO[C@H]2OCC[C@H]21: 157

###

Reported CC50 at 120 h values for the following molecules.
ASSAY NAME: Cytotoxicity in uninfected MT4 cells (MTT)
Type: cell-based
EXPERIMENTAL PARAMETERS: human, 5 days, n=four duplicate determinations, read-out: CTC50 (50% cytotoxicity concentration)
REPORTED PROPERTY: CC50 at 120 h

* CC(C)[C@@H](NC(=O)N(C)Cc1cncs1)C(=O)N[C@@H](Cc1ccccc1)C[C@H](O)[C@H](Cc1ccccc1)NC(=O)O[C@H]1CO[C@H]2OCC[C@H]21 | > 100 µM
* Cc1nc(CN(C)C(=O)N[C@H](C(=O)N[C@@H](Cc2ccccc2)C[C@H](O)[C@H](Cc2ccccc2)NC(=O)OC2COC3OCCC23)C(C)C)cs1 (stereo partly drawn) | > 100 µM
* CC(C)c1nc(COC(=O)N[C@H](C(=O)N[C@@H](Cc2ccccc2)C[C@H](O)[C@H](Cc2ccccc2)NC(=O)OC2COC3OCCC23)C(C)C)cs1 (stereo partly drawn) | > 100 µM

###

ASSAY NAME: Cytotoxicity in uninfected MT4 cells (MTT)
Type: cell-based
EXPERIMENTAL PARAMETERS: human, 5 days, n=four duplicate determinations, read-out: CTC50 (50% cytotoxicity concentration)
Reported CC50 at 120 h values for the following compounds.
REPORTED PROPERTY: CC50 at 120 h

* Cc1cc(N)cc(C)c1SCC(=O)N[C@@H](Cc1ccccc1)C[C@H](O)[C@H](Cc1ccccc1)NC(=O)O[C@H]1CO[C@H]2OCC[C@H]21 | 56 µM
* CC(C)c1nc(CN(C)C(=O)N[C@H](C(=O)N[C@@H](Cc2ccccc2)C[C@H](O)[C@H](Cc2ccccc2)NC(=O)OC2COC3OCCC23)C(C)C)cs1 (stereo partly drawn) | 56.3 µM
* Nc1ccc(Cl)c(C(=O)N[C@@H](Cc2ccccc2)[C@@H](O)C[C@H](Cc2ccccc2)NC(=O)O[C@H]2CO[C@H]3OCC[C@H]32)c1 | > 100 µM
* O=C(N[C@@H](Cc1ccccc1)C[C@H](O)[C@H](Cc1ccccc1)NC(=O)c1ccc(O)cc1)O[C@H]1CO[C@H]2OCC[C@H]21 | > 100 µM
* Cc1cc(N)cc(C)c1OCC(=O)N[C@@H](Cc1ccccc1)C[C@H](O)[C@H](Cc1ccccc1)NC(=O)O[C@@H]1CO[C@@H]2OCC[C@@H]21 | 90 µM
* Cc1nc(CN(C)C(=O)N[C@H](C(=O)N[C@@H](Cc2ccccc2)C[C@H](O)[C@H](Cc2ccccc2)NC(=O)O[C@H]2CO[C@H]3OCC[C@H]32)C(C)C)cs1 | > 100 µM
* Cc1ccc(N)c(C)c1OCC(=O)N[C@@H](Cc1ccccc1)C[C@H](O)[C@H](Cc1ccccc1)NC(=O)O[C@H]1CO[C@H]2OCC[C@H]21 | > 100 µM
* CC(C)c1nc(COC(=O)N[C@@H](C(=O)N[C@@H](Cc2ccccc2)C[C@H](O)[C@H](Cc2ccccc2)NC(=O)OC2COC3OCCC23)C(C)C)cs1 (stereo partly drawn) | 27.8 µM
* O=C(N[C@@H](Cc1ccccc1)[C@@H](O)C[C@H](Cc1ccccc1)NC(=O)O[C@@H]1CO[C@@H]2OCC[C@@H]21)OCc1cncs1 | > 100 µM
* O=C(N[C@@H](Cc1ccccc1)C[C@H](O)[C@H](Cc1ccccc1)NC(=O)c1ccccc1)O[C@H]1CO[C@H]2OCC[C@H]21 | > 32 µM
* Cc1ncnc(C)c1OCC(=O)N[C@@H](Cc1ccccc1)C[C@H](O)[C@H](Cc1ccccc1)NC(=O)O[C@H]1CO[C@H]2OCC[C@H]21 | > 100 µM
* Cc1c(O)cccc1C(=O)N[C@@H](Cc1ccccc1)[C@@H](O)C[C@H](Cc1ccccc1)NC(=O)O[C@@H]1CO[C@@H]2OCC[C@@H]21 | > 100 µM

###

Test system: HIVIIIB
ASSAY NAME: Antiviral Activity: anti-HIV activity in MT4 cells infected with HIVIIIB (MTT)
Format: cell-based
EXPERIMENTAL PARAMETERS: Human immunodeficiency virus 1, 120 h, MOI 0.003, 5 days, n=four duplicate determinations
REPORTED PROPERTY: log10(EC50) (log10 of the value in nM)

* Nc1ccc(Cl)c(C(=O)N[C@@H](Cc2ccccc2)[C@@H](O)C[C@H](Cc2ccccc2)NC(=O)O[C@@H]2CO[C@@H]3OCC[C@@H]32)c1 | 3.19
* O=C(N[C@@H](Cc1ccccc1)C[C@H](O)[C@H](Cc1ccccc1)NC(=O)c1ccc(O)cc1)O[C@H]1CO[C@H]2OCC[C@H]21 | 2.30
* CC(C)c1nc(CN(C)C(=O)NC(C(=O)NC(Cc2ccccc2)CC(O)C(Cc2ccccc2)NC(=O)OC2COC3OCCC23)C(C)C)cs1 (stereo not drawn) | 1.08
* Cc1ccc(O)c(C)c1OCC(=O)N[C@@H](Cc1ccccc1)C[C@H](O)[C@H](Cc1ccccc1)NC(=O)O[C@H]1CO[C@H]2OCC[C@H]21 | 0.85
* Cc1cccc(C)c1OCC(=O)N[C@@H](Cc1ccccc1)C[C@H](O)[C@H](Cc1ccccc1)NC(=O)O[C@H]1CO[C@H]2OCC[C@H]21 | 1.61
* Cc1cc2[nH]cnc2c(C)c1OCC(=O)N[C@@H](Cc1ccccc1)C[C@H](O)[C@H](Cc1ccccc1)NC(=O)O[C@H]1CO[C@H]2OCC[C@H]21 | 2.06

###

Reported CC50 at 120 h values for the following compounds.
ASSAY NAME: Cytotoxicity in uninfected MT4 cells (MTT)
Format: cell-based
EXPERIMENTAL PARAMETERS: human, 5 days, n=four duplicate determinations, read-out: CTC50 (50% cytotoxicity concentration)
REPORTED PROPERTY: CC50 at 120 h

• Cc1cc(N)cc(C)c1OCC(=O)N[C@@H](Cc1ccccc1)C[C@H](O)[C@H](Cc1ccccc1)NC(=O)O[C@H]1CO[C@H]2OCC[C@H]21 = 95 µM
• CC(C)[C@H](NC(=O)OCc1cncs1)C(=O)N[C@@H](Cc1ccccc1)C[C@H](O)[C@H](Cc1ccccc1)NC(=O)O[C@H]1CO[C@H]2OCC[C@H]21 = > 100 µM
• O=C(N[C@@H](Cc1ccccc1)C[C@H](O)[C@H](Cc1ccccc1)NC(=O)OC1COC2OCCC12)OC1COC2OCCC12 (stereo partly drawn) = > 100 µM
